Assay target: Aminopeptidase N (Sus scrofa)
Sequence (P15145 whole entry): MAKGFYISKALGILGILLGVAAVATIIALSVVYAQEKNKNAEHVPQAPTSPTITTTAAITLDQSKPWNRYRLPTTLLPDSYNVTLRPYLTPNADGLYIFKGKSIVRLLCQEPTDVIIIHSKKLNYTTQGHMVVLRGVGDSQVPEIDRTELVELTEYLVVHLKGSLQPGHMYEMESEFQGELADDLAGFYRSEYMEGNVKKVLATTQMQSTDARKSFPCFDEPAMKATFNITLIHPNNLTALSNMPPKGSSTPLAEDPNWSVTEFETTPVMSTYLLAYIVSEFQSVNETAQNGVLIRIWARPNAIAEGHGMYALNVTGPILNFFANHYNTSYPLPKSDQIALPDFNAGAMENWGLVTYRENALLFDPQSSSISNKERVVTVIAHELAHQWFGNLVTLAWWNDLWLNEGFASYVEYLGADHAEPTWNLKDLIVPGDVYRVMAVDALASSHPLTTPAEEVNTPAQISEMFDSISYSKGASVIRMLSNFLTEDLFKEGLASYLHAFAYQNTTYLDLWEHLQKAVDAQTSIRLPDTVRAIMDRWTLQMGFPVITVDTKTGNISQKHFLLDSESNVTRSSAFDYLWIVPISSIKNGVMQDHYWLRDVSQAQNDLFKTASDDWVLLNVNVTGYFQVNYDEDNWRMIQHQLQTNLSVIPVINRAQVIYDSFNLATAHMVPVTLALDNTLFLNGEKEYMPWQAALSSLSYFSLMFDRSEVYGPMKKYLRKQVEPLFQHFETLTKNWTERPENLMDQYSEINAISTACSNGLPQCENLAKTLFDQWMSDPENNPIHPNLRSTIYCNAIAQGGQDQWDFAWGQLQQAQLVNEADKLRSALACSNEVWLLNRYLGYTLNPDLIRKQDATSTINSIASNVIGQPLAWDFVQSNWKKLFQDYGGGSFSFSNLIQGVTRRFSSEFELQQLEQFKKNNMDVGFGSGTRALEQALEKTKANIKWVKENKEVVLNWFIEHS
Below, IC50 values reported for Aminopeptidase N (Sus scrofa) across several publications.
Output Yes for records whose IC50 is lower than 9 µM, No for records at or above 9 µM.

CC(C)C[C@H](NC(=O)N[C@@H](CC(C)C)C(=O)NO)C(=O)NO = No
N[C@@H](CNC(=O)CCc1ccccc1)Cc1ccccc1 = No
Cc1cc(/C=N/Nc2ccc([N+](=O)[O-])cc2[N+](=O)[O-])c(C)n1-c1ccc(S(N)(=O)=O)cc1 = No
NCCCC[C@H](N)C(=O)NC[C@H](N)[C@@H](O)c1ccc([N+](=O)[O-])cc1 = No

Exercise: Please let me know if O=C(O)CCCNC(=O)C(CC(=O)NO)Cc1ccccc1 (stereo not drawn) shows IC50 below 9 µM.
Key: Yes

Exercise: Another compound to look at: CC(C)C[C@H](NC(=O)[C@@H](O)[C@H](N)Cc1ccccc1)C(=O)NCCCC(=O)OCn1cc(F)c(=O)[nH]c1=O
Key: Yes

Exercise: Another compound to look at: COc1cc(C(=O)N[C@H](CCC(=O)O)C(=O)Nc2ccc(N)cc2)cc(OC)c1OC
Key: No

Exercise: Another compound to look at: N[C@@H](C(=O)N[C@@H](Cc1ccccc1)C(=O)N[C@@H](Cc1ccccc1)C(=O)O)[C@@H](O)c1ccc([N+](=O)[O-])cc1
Key: Yes

Exercise: Another compound to look at: CC(C)C[C@H](NC(=O)NCc1cn(Cc2ccccc2[N+](=O)[O-])nn1)C(=O)NO
Key: Yes

Exercise: Another compound to look at: O=C(O)CNC(=O)N[C@@H](CCCCNC(=O)OCc1ccccc1)C(=O)O
Key: No

Exercise: Another compound to look at: N[C@@H](CNC(=O)[C@H](Cc1ccccc1)NC(=O)c1ccc([N+](=O)[O-])cc1)Cc1ccccc1
Key: No
